# Subject of test: ACC (acetyl CoA carboxylase) purified from liver of male SD rat (Rattus norvegicus, UniProt P11497)
# Construct: applied to a monomeric avidin sepharose column, and washed with buffer B. The ACC was eluted with buffer B containing 2 mM d-biotin; from tissue; host or cells: liver of male SD rat
# Method summary: Measurement of ACC inhibition activity ([14C]-NaHCO3 incorporation)
# Format: biochemical
# Experimental parameters: ACC inhibition activity rate at 1 μM; Table 2-III, Mode 3 acetylene/oxadiazole/thiazole compounds (numbers = x-III); read-out: ACC Inhibition (%)
Test readout: inhibition at 1 µM (%)

Compound: O=C1c2cccc3cccc(c23)C(=O)N1c1cccc(C#Cc2cccc(C(F)(F)F)c2)c1
Test readout: inhibition at 1 µM
Test result: 62
--
Compound: O=S(=O)(Nc1ccc(-c2csc(-c3ccccc3)n2)cc1)c1ccccc1NO
Test readout: inhibition at 1 µM
Test result: 55
--
Compound: O=C(O)c1ccccc1C(=O)Nc1ccc(C#Cc2cccc(C(F)(F)F)c2)cc1
Test readout: inhibition at 1 µM
Test result: 61
--
Compound: O=[N+]([O-])c1ccccc1S(=O)(=O)Nc1ccc(-c2csc(-c3ccccc3)n2)cc1
Test readout: inhibition at 1 µM
Test result: 64
--
Compound: CC(C)c1ccc(S(=O)(=O)NC(=O)c2ccc3c(c2)CN(c2cccc(-c4csc(-c5ccccc5)n4)c2)C3)cc1
Test readout: inhibition at 1 µM
Test result: 60
--
Compound: O=[N+]([O-])c1ccccc1S(=O)(=O)Nc1cccc(-c2csc(-c3ccccc3)n2)c1
Test readout: inhibition at 1 µM
Test result: 63
--
Compound: O=C(O)c1ccc(C(=O)Nc2ccc(C#Cc3cccc(C(F)(F)F)c3)cc2)c(C(=O)O)c1
Test readout: inhibition at 1 µM
Test result: 51
--
Compound: O=C(O)CNC(=O)Nc1ccc(C#Cc2cccc(C(F)(F)F)c2)cc1
Test readout: inhibition at 1 µM
Test result: 64
--
Compound: O=C(O)C1C=CC=CC1c1nc(-c2ccc(-c3csc(-c4ccc(C(F)(F)F)cc4)n3)cc2)no1 (centres unmarked)
Test readout: inhibition at 1 µM
Test result: 62
--
Compound: O=C(Nc1ccc(-c2csc(-c3ccccc3)n2)cc1)N[C@H](Cc1ccccc1)C(=O)O
Test readout: inhibition at 1 µM
Test result: 63
--
Compound: O=C(O)CCC(NC(=O)OCc1ccccc1)C(=O)Nc1ccc(-c2csc(-c3ccccc3)n2)cc1 (centres unmarked)
Test readout: inhibition at 1 µM
Test result: 66
--
Compound: O=S(=O)(Nc1ccc(-c2csc(-c3ccc(C(F)(F)F)cc3)n2)cc1)c1cccc(S(=O)(=O)Nc2ccc(-c3csc(-c4ccc(C(F)(F)F)cc4)n3)cc2)c1
Test readout: inhibition at 1 µM
Test result: 73
--
Compound: O=C(O)c1ccc(-c2nc(-c3ccc(-c4csc(-c5ccc(C(F)(F)F)cc5)n4)cc3)no2)cc1
Test readout: inhibition at 1 µM
Test result: 53
--
Compound: Nc1cccc(S(=O)(=O)Nc2ccc(-c3csc(-c4ccccc4)n3)cc2)c1
Test readout: inhibition at 1 µM
Test result: 65
--
Compound: O=C(Nc1ccc(C#Cc2cccc(C(F)(F)F)c2)cc1)NC(Cc1ccccc1)C(=O)O (centres unmarked)
Test readout: inhibition at 1 µM
Test result: 73
--
Compound: O=C(O)c1ccccc1-c1csc(-c2ccc(C#Cc3cccc(C(F)(F)F)c3)cc2)n1
Test readout: inhibition at 1 µM
Test result: 50
--
Compound: O=C(O)c1ccccc1S(=O)(=O)Nc1ccc(C#Cc2cccc(C(F)(F)F)c2)cc1
Test readout: inhibition at 1 µM
Test result: 60
